Provenance of the data: the supplement of paper PMC6555819

System: PXR homodimer (NR concentration 270 nM)
TEST DESCRIPTION: PBM binding z-score (relative to random genomic background probes); higher = stronger binding; sequences stand for … in GC…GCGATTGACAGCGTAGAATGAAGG
Assign Satisfied whenever PBM binding z-score does not fall below -0.05; assign Not satisfied whenever it does.

>  <CHAIN SEQUENCE>
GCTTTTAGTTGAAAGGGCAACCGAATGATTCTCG

>  <LABEL VALUE>
Not satisfied

$$$$
>  <CHAIN SEQUENCE>
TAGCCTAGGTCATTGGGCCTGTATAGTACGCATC

>  <LABEL VALUE>
Not satisfied

$$$$
>  <CHAIN SEQUENCE>
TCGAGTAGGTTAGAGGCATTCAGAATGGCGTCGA

>  <LABEL VALUE>
Not satisfied

$$$$
>  <CHAIN SEQUENCE>
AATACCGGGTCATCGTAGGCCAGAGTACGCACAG

>  <LABEL VALUE>
Satisfied

$$$$
>  <CHAIN SEQUENCE>
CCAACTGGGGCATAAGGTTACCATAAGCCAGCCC

>  <LABEL VALUE>
Not satisfied

$$$$
>  <CHAIN SEQUENCE>
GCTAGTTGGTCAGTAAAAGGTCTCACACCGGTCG

>  <LABEL VALUE>
Satisfied

$$$$
>  <CHAIN SEQUENCE>
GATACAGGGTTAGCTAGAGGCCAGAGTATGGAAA

>  <LABEL VALUE>
Not satisfied

$$$$
>  <CHAIN SEQUENCE>
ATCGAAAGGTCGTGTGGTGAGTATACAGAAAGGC

>  <LABEL VALUE>
Satisfied

$$$$
>  <CHAIN SEQUENCE>
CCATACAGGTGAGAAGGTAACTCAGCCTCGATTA

>  <LABEL VALUE>
Satisfied

$$$$
>  <CHAIN SEQUENCE>
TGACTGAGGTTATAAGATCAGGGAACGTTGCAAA

>  <LABEL VALUE>
Not satisfied

$$$$
>  <CHAIN SEQUENCE>
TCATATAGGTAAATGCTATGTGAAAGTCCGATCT

>  <LABEL VALUE>
Not satisfied

$$$$
>  <CHAIN SEQUENCE>
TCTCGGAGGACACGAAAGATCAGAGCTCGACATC

>  <LABEL VALUE>
Not satisfied

$$$$
>  <CHAIN SEQUENCE>
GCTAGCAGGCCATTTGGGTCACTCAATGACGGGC

>  <LABEL VALUE>
Satisfied

$$$$
>  <CHAIN SEQUENCE>
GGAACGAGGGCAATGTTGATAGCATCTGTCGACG

>  <LABEL VALUE>
Satisfied

$$$$
>  <CHAIN SEQUENCE>
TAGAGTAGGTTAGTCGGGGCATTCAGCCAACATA

>  <LABEL VALUE>
Satisfied

$$$$
>  <CHAIN SEQUENCE>
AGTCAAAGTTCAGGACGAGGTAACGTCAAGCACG

>  <LABEL VALUE>
Satisfied

$$$$
